Data provenance: patent US9303012B2

- Assay System: human CB2 receptors (Homo sapiens (Human))
- Run Description: functional cAMP assay, CHO cells expressing human CB2 receptors
In this section, each of the compounds is paired with its reported EC50.
Observation Type: EC50 (nM)

CN(C)C(=O)c1ccc(N2CC(F)(F)C2)c(OCC2CC2)n1 [Example 2]	297
NC(=O)[C@@H]1C[C@@H](F)CN1C(=O)c1ccc(N2CC(F)(F)C2)c(OCC2CC2)n1 [Example 126]	40
O=C(c1ccc(N2CC(F)(F)C2)c(OCC2CC2)n1)N1CC(F)(F)C(F)(F)C1 [Example 118]	13.2
NC(=O)[C@@H]1C[S@+]([O-])CN1C(=O)c1ccc(C2CC2)c(OCC2CC2)n1 (single isomer, unassigned) [Example 116]	672
O=C(c1ccc(N2CC(F)(F)C2)c(OCC2CC2)n1)N1CC2(C1)CS(=O)(=O)C2 [Example 71]	444
O=C(c1ccc(C2CC2)c(OCC2CC2)n1)N1CCC(C(O)C(F)(F)F)C1 (centres unmarked) [Example 141]	262
NC(=O)[C@H]1CCCCN1C(=O)c1ccc(C2CC2)c(OCC2CC2)n1 [Example 91]	893
O=C(c1ccc(N2CC(F)(F)C2)c(OCC2CC2)n1)N1CC2CCOC2C1 (centres unmarked) [Example 70]	104

###

- Assay System: human CB2 receptors (Homo sapiens (Human))
- Run Description: functional cAMP assay, CHO cells expressing human CB2 receptors
Observation Type: EC50

CC(Oc1nc(C(=O)N(C)C(C)(C)C)ccc1C1CC1)C(F)(F)F (stereo not drawn) [Example 13]	119 nM
CC1(C)CCCN1C(=O)c1ccc(OCC2CC2)c(Cl)n1 [Example 47]	113 nM
NC(=O)[C@@H]1CS(=O)(=O)CN1C(=O)c1ccc(N2CC(F)(F)C2)c(OCC2CC2)n1 [Example 127]	3.4 nM
O=C(c1ccc(N2CC(F)(F)C2)c(OCC2CC2)n1)N1CCN(CC2CC2)CC1 [Example 106]	123 nM
CC1(C)CCCN1C(=O)c1ccc(N2CC(F)(F)C2)c(OCC2CC2)n1 [Example 18]	0.6 nM
C[C@]1(O)C[C@@H](C(N)=O)N(C(=O)c2ccc(N3CC(F)(F)C3)c(OCC3CC3)n2)C1 [Example 140]	40.6 nM
NC(=O)C1CSCN1C(=O)c1ccc(C2CC2)c(OCC2CC2)n1 (stereo not drawn) [Example 96]	103 nM
NC(=O)C1CSCN1C(=O)c1ccc(N2CC(F)(F)C2)c(OCC2CC2)n1 (stereo not drawn) [Example 122]	50 nM
CC1(C)COCN1C(=O)c1ccc(C2CC2)c(Cc2ccc(F)cc2)n1 [Example 44]	3.1 nM
CC(C)CS(=O)(=O)c1nc(C(=O)N2CCCC2(C)C)ccc1C1CC1 [Example 30]	34.5 nM
NC(=O)[C@@H]1CC(F)(F)CN1C(=O)c1ccc(N2CC(F)(F)C2)c(OCC2CC2)n1 [Example 60]	3.08 nM
CC1(C)C[C@H](C(N)=O)N(C(=O)c2ccc(C3CC3)c(OCC3CC3)n2)C1 [Example 94]	80.2 nM
CC(=O)N1CCC(N(C(=O)c2ccc(N3CC(F)(F)C3)c(OCC3CC3)n2)C2CC2)CC1 [Example 50]	237 nM
NC(=O)[C@@H]1CC2(CC2)CN1C(=O)c1ccc(N2CC(F)(F)C2)c(OCC2CC2)n1 [Example 145]	356 nM
O=C(c1ccc(N2CC(F)(F)C2)c(OCC2CC2)n1)N1CC(O)(C(F)(F)F)C1 [Example 139]	42 nM
NC(=O)C1CS(=O)(=O)CN1C(=O)c1ccc(N2CC(F)(F)C2)c(OCC2CC2)n1 (stereo not drawn) [Example 125]	9.5 nM
CC1(C)C(=O)NCCN1C(=O)c1ccc(N2CC(F)(F)C2)c(OCC2CC2)n1 [Example 28]	414 nM
NC(=O)C1CS(=O)(=O)CN1C(=O)c1ccc(C2(F)CCC2)c(OCC2CC2)n1 (stereo not drawn) [Example 133]	10.2 nM
O=C(c1ccc(N2CC(F)(F)C2)c(OCC2CC2)n1)N1CCC12COC2 [Example 10]	662 nM
NC(=O)[C@@H]1CC(F)(F)CN1C(=O)c1ccc(C2CC2)c(OCC2CCCO2)n1 (stereo partly drawn) [Example 75]	16.2 nM
CN(C(=O)c1ccc(N2CC(F)(F)C2)c(OCC2CC2)n1)C1(C(F)(F)F)CC1 [Example 16]	8 nM
CN(C(=O)c1ccc(N2CC(F)(F)C2)c(OCC2CC2)n1)C(C)(C)COC(=O)c1ccc(N2CC(F)(F)C2)c(OCC2CC2)n1 [Example 12]	134 nM
O=C(c1ccc(N2CC(F)(F)C2)c(OCC2CC2)n1)N1CCC(C(O)C(F)(F)F)C1 (stereo not drawn) [Example 136]	32.9 nM
O=C(c1ccc(N2CC(F)(F)C2)c(OCC2CC2)n1)N1CCC2(CC(O)CO2)C1 (stereo not drawn) [Example 82]	356 nM
CC(C)C[C@H](c1cccnn1)N(C)C(=O)c1ccc(N2CC(F)(F)C2)c(OCC2CC2)n1 [Example 34]	91.1 nM
CCOC(=O)C1CCCN(C(=O)c2ccc(N3CC(F)(F)C3)c(OCC3CC3)n2)C1c1ccccc1 (stereo not drawn) [Example 67]	368 nM
NC(=O)C1CCCN1C(=O)c1ccc(N2CC(F)(F)C2)c(OCC2CC2)n1 (stereo not drawn) [Example 114]	473 nM
CC1(C)SCN(C(=O)c2ccc(N3CC(F)(F)C3)c(OCC3CC3)n2)[C@@H]1C(N)=O [Example 120]	42 nM
NC(=O)[C@@H]1C[C@@H](F)CN1C(=O)c1ccc(C2CC2)c(OCC2CC2)n1 [Example 123]	58.4 nM
O=C(c1ccc(N2CC(F)(F)C2)c(OCC2CC2)n1)N1C[C@@H]2C[C@H]1CN2Cc1ccccc1 [Example 63]	198 nM
NC(=O)[C@@H]1CC(F)(F)CN1C(=O)c1ccc(C2CC2)c(OCC2CC2)n1 [Example 68]	2.7 nM
CC1(C)COCCN1C(=O)c1ccc(N2CC(F)(F)C2)c(OCC2CC2)n1 [Example 17]	5.2 nM
CC(=O)NC1CCN(C(=O)c2ccc(N3CC(F)(F)C3)c(OCC3CC3)n2)C1 (stereo not drawn) [Example 41]	966 nM

###

- Assay System: human CB2 receptors (Homo sapiens (Human), UniProt P34972)
- Sequence (P34972 whole entry): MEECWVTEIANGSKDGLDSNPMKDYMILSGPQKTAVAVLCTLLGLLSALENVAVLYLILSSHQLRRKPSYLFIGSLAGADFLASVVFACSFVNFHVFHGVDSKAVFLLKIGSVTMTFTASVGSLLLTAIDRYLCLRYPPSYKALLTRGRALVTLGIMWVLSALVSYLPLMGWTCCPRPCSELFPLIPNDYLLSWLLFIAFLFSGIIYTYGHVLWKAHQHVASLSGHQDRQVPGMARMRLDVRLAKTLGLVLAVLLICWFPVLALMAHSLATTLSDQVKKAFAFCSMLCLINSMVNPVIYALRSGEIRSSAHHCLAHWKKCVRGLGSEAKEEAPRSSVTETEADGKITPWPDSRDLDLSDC
- Run Description: functional cAMP assay, CHO cells expressing human CB2 receptors
Observation Type: EC50

NC(=O)[C@@H]1CSCN1C(=O)c1ccc(C2CC2)c(OCC2CC2)n1 [Example 97]	72.3 nM
CC1(F)CN(C(=O)c2ccc(N3CC(F)(F)C3)c(OCC3CC3)n2)C1 [Example 149]	79 nM
O=C(c1ccc(N2CC(F)(F)C2)c(OCC2CC2)n1)N1CCC(O)(C(F)(F)F)C1 (stereo not shown) [Example 138]	83.5 nM
COCC(C)(C)N(C)C(=O)c1ccc(N2CC(F)(F)C2)c(OCC2CC2)n1 [Example 9]	3.8 nM

###

The compounds listed here are annotated with their EC50.
- Assay System: human CB2 receptors (Homo sapiens (Human), UniProt P34972)
- Run Description: functional cAMP assay, CHO cells expressing human CB2 receptors
- Assay type: cell-based
Observation Type: EC50 (µM)

O=C(c1ccc(N2CC(F)(F)C2)c(OCC2CC2)n1)N1CC(F)(F)C[C@H]1CO	0.0037
CN1C(=O)CN(C(=O)c2ccc(N3CC(F)(F)C3)c(OCC3CC3)n2)[C@@H]1C(C)(C)C	0.0369
O=C(c1ccc(C2CC2)c(OCC2CC2)n1)N1CCC(CO)(C(F)(F)F)C1 (stereo not shown)	0.0263
CC1(C)CCN(C(=O)c2ccc(C3CC3)c(Cc3ccc(F)cc3)n2)CC1	0.009
O=C(c1ccc(N2CC(F)(F)C2)c(OCC2CC2)n1)N1CCC2(CC2)C1	0.0074
Cc1nnc(CN(C(=O)c2ccc(N3CC(F)(F)C3)c(OCC3CC3)n2)C(C)(C)C)o1	0.226
NC(=O)[C@@H]1N(C(=O)c2ccc(N3CC(F)(F)C3)c(OCC3CC3)n2)CCC12CC2	0.818
NC(=O)[C@@H]1CSCCN1C(=O)c1ccc(C2CC2)c(OCC2CC2)n1	0.327
O=C(c1ccc(N2CC(F)(F)C2)c(OCC2CC2)n1)N1CC(F)(F)C1	0.181
NC(=O)[C@@H]1CC(F)(F)CN1C(=O)c1ccc(N2CC(F)(F)C2)c(OCCF)n1	1.17

###

- Assay System: UniProt P34972
- Run Description: functional cAMP assay, CHO cells expressing human CB2 receptors
pEC50: −log10 of the molar value.
Response key: Y means pEC50 >= 7; N means pEC50 < 7.

O=C(c1ccc(N2CC(F)(F)C2)c(OCC2CC2)n1)N1CCC(CO)(C(F)(F)F)C1 (centres unmarked) [Example 137]	Y
CN(CC1CC1)C(=O)c1ccc(N2CC(F)(F)C2)c(OCC2CC2)n1 [Example 105]	N
NC(=O)C1CSCCN1C(=O)c1ccc(C2CC2)c(OCC2CC2)n1 (centres unmarked) [Example 89]	N
CN(C(=O)c1ccc(N2CC(F)(F)C2)c(OCC2CC2)n1)c1ccccc1 [Example 52]	N
CCN(C(=O)c1ccc(N2CC(F)(F)C2)c(OCC2CC2)n1)C1(C(F)(F)F)CC1 [Example 21]	Y
CN(C(=O)c1ccc(C2CC2)c(OCC2CCCO2)n1)C(C)(C)C (centres unmarked) [Example 4]	Y
CN(C)C(=O)CN(C(=O)c1ccc(N2CC(F)(F)C2)c(OCC2CC2)n1)C(C)(C)C [Example 27]	N
